System: glucose 6-phosphate dehydrogenase
Protocol: Stabilization of glucose 6-phosphate dehydrogenase in a reagent for measuring the activity of creatine kinase (residual activity after storage)
Type: biochemical
Assay context: 10 mM additive in reagent solution 1 (pH 6.6), stored at 10° C. for 12 months; activity immediately after preparation = 100%
Structures can show the parent of a compound that is named as a salt.
Experimental readout: Residual Activity after 12 months (%)

Molecule	Unit tag	Residual Activity after 12 months (%)
NNC(=O)c1ccccc1 [II-1, benzoylhydrazine]	%	87.6
CC(=O)NNC(N)=S [II-9, 1-acetylthiosemicarbazide]	%	45.6
CCOC(=O)CNN [II-5, ethylhydrazinoaceate hydrochloride]	%	28.3
NO.NO.O=S(=O)(O)O [Compound I-2, hydroxylamine sulfate]	%	88.7
O=C(c1ccccc1)N(O)c1ccccc1 [Compound I-6, N-benzoyl-N-phenylhydroxylamine]	%	30.3

1. CON [Compound I-10, O-methylhydroxylamine]
2. CC(C)(C)NO [Compound I-12, N-(tert-butyl)hydroxylamine]
Task: Choose between 1 and 2 : whose measured Residual Activity after 12 months (%) value is numerically larger? In your reply, give the label of the chosen option.
Result: 1

a. NNC(=O)Nc1ccccc1 [II-14, 4-phenylsemicarbazide]
b. Cc1ccccc1N(O)C(=O)c1ccccc1 [Compound I-7]
c. NNC(=O)c1cc2ccccc2cc1O [II-7, 3-hydroxy-2-naphthoenic acid hydrazide]
d. CC(C)=NNC(N)=S [II-16, acetone thiosemicarbazone]
Task: Rank descending by Residual Activity after 12 months (%). Returns: the labels listed in the requested order.
Result: a, c, d, b

a. CCOC(=O)NN [II-12, ethyl carbazate]
b. Cc1cccc(N(O)C(=O)C=Cc2ccccc2)c1C [Compound I-11, N-cinnamoyl-N-2,3-xylylhydroxylamine]
Task: Of the pair a and b , name the member with the lesser recorded Residual Activity after 12 months (%). In your reply, give the label of the chosen option.
Result: b

I. COC(=O)NN [II-8, methyl carbazate]
II. CC(C)NNC(=O)c1ccncc1 [II-15, iproniazide]
Task: Choose between I and II : whose measured Residual Activity after 12 months (%) value is numerically larger? In your reply, give the label of the chosen option.
Result: I

a. CNO [Compound I-9, N-methylhydroxylamine]
b. O=C(C=Cc1ccccc1)N(O)c1ccccc1 [Compound I-8, N-cinnamoyl-N-phenylhydroxylamine]
Task: Of the pair a and b , name the member with the lesser recorded Residual Activity after 12 months (%). In your reply, give the label of the chosen option.
Result: b
(b: 44.5%, a: 80.3%)

I. Cl.NOCC(=O)O [Compound I-4, carboxymethoxylamine hydrochloride]
II. CCNC(=S)NN [II-13, 4-ethyl-3-thiosemicarbazide]
Task: Choose between I and II : whose measured Residual Activity after 12 months (%) value is numerically larger? In your reply, give the label of the chosen option.
Result: I

====

Test system: glucose 6-phosphate dehydrogenase
Protocol: Stabilization of glucose 6-phosphate dehydrogenase in a reagent for measuring the activity of creatine kinase (residual activity after storage)
Format: biochemical
Assay context: 10 mM additive in reagent solution 1 (pH 6.6), stored at 10° C. for 3 months; activity immediately after preparation = 100%
Structures can show the parent of a compound that is named as a salt.
Experimental readout: Residual activity after 3 months (%)

Compound	Reported result
O=C(C=Cc1ccccc1)N(O)c1ccccc1 [Compound I-8, N-cinnamoyl-N-phenylhydroxylamine]	90.4
CC(=O)NNC(N)=S [II-9, 1-acetylthiosemicarbazide]	82.3
CN(C)C(=S)Cl [III, dimethylthiocarbamoyl chloride]	80.3
CCOC(=O)CNN [II-5, ethylhydrazinoaceate hydrochloride]	75.4
CON [Compound I-10, O-methylhydroxylamine]	99.7

====

System: glucose 6-phosphate dehydrogenase
Protocol: Stabilization of glucose 6-phosphate dehydrogenase in a reagent for measuring the activity of creatine kinase (residual activity after storage)
Format: biochemical
Assay context: 10 mM additive in reagent solution 1 (pH 6.6), stored at 10° C. for 12 months; activity immediately after preparation = 100%
Experimental readout: Residual Activity after 12 months (%)

Compound	Unit tag	Residual Activity after 12 months (%)
NO.O=C(O)C(=O)O [Compound I-3, hydroxylamine oxalate]	%	89.2
NCCNCCO	%	81.1
Cl.NOCc1ccccc1 [Compound I-5, O-benzylhydroxylamine hydrochloride]	%	78.9
Br.NNC1=NCCN1 [II-6, 2-hydrazino-2-imidazoline hydrobromide]	%	58.5
CN(C)C(=S)Cl [III, dimethylthiocarbamoyl chloride]	%	43.2
Cl.ONC1CCCCC1 [Compound I-13, N-cyclohexylhydroxylamine hydrochloride]	%	80.2
NNC(=O)C(=O)NN [II-3, oxalyldihydrazide]	%	65.2
NNC(=O)c1cccnc1 [II-4, nicotinic acid hydrazide]	%	38.5
NC(=S)C(N)=S [II-17, dithiooxyamide]	%	32.3
Cl.NO [Compound I-1, hydroxylamine hydrochloride]	%	85.9

The values you see were collected from patent US5424204A.
